B1: library; numbered along this chain (parent)
chain: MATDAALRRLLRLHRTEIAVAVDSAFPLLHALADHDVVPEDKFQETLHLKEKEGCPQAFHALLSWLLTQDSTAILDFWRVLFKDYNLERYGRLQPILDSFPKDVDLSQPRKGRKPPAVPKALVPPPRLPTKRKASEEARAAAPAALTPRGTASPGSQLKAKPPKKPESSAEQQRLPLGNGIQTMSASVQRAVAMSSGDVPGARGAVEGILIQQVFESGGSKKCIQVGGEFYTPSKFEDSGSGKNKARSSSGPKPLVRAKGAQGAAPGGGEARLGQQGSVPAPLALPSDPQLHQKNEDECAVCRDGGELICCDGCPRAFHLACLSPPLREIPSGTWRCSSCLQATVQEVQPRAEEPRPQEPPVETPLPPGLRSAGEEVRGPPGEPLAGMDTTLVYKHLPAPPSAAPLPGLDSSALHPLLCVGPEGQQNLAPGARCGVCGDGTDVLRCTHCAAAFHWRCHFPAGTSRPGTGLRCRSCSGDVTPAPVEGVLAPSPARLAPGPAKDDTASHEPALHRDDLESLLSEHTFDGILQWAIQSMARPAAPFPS

- Variants of: B1
- testName: AIRE transcriptional activation functional score (insulin promoter-GFP; nonsense median 0, synonymous median 1) (normalised score); higher = higher AIRE activity (more reporter activation)
- testParameters: with insulin promoter-GFP reporter in HEK293
Use Condition met when the recorded AIRE transcriptional activation functional score is no lower than 1; use Condition not met when it is lower.

Worked set:
1) G467M    Condition not met
2) S195V    Condition not met
3) F230E    Condition not met
4) A31V    Condition not met
5) G438A    Condition met
6) A202V    Condition met
7) V214G    Condition not met
8) P367M    Condition not met
9) S107T    Condition not met
10) D297R    Condition not met

Task: Given the entry Q276T , answer whether its AIRE transcriptional activation functional score meets or surpasses 1.
Result: Condition met

Task: Given the entry L428P , answer whether its AIRE transcriptional activation functional score meets or surpasses 1.
Result: Condition not met

Task: Given the entry D503V , answer whether its AIRE transcriptional activation functional score meets or surpasses 1.
Result: Condition not met

Task: Given the entry A505M , answer whether its AIRE transcriptional activation functional score meets or surpasses 1.
Result: Condition not met

Task: Given the entry D389H , answer whether its AIRE transcriptional activation functional score meets or surpasses 1.
Result: Condition met

Task: Given the entry A500Q , answer whether its AIRE transcriptional activation functional score meets or surpasses 1.
Result: Condition met

Task: Given the entry P325L , answer whether its AIRE transcriptional activation functional score meets or surpasses 1.
Result: Condition met

Task: Given the entry Q213Y , answer whether its AIRE transcriptional activation functional score meets or surpasses 1.
Result: Condition met

Task: Given the entry H319T , answer whether its AIRE transcriptional activation functional score meets or surpasses 1.
Result: Condition met

Task: Given the entry S518Q , answer whether its AIRE transcriptional activation functional score meets or surpasses 1.
Result: Condition met
